systemTested: GDP-bound KRAS protein (aa 1-169), containing both G12C and C118A amino acid substitutions (Homo sapiens (Human), UniProt P01116, C118A/G12C)
Sequence (P01116 other isoform, or with tags, fused parts or gaps G12C/C118A): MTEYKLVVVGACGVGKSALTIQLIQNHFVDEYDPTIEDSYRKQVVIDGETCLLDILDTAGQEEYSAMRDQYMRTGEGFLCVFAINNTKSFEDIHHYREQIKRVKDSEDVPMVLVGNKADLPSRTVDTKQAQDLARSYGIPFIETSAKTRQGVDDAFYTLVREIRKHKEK
experimentSummary: Coupled Nucleotide Exchange Assay
Assay type: biochemical
reportedConditions: read-out: Coupled Exchange IC50 (2 h); 2 h compound pre-incubation
pIC50: −log10 of the molar value.
Could you label it criterion met if measured pIC50 is 5 or higher, and criterion not met otherwise?

- molecule: "C=CC(=O)N1CC(NC(=O)Cn2c(C)c(-c3ccccc3-c3ccccc3)c3cc(Cl)ccc32)C1"
  category: "criterion met"

# evaluate next
*Q* Check this molecule for pIC50 at or above 5: C=CC(=O)N1CC(NC(=O)Cn2cc(-c3cnn(C)c3)c3cc(Cl)ccc32)C1
*A* criterion not met

* * *

systemTested: GDP-bound KRAS protein (aa 1-169), containing both G12C and C118A amino acid substitutions (Homo sapiens (Human), UniProt P01116, C118A/G12C)
experimentSummary: Coupled Nucleotide Exchange Assay
Type: biochemical
reportedConditions: read-out: Coupled Exchange IC50 (2 h); 2 h compound pre-incubation
measuredEndpoint: pIC50
Please keep in mind that pIC50 is minus log10 of the molar concentration; only the number is needed.

Record excerpt, results attached:
- compound: "C=CC(=O)N1CC(NC(=O)Cn2cc(C(=O)NCCc3ccc(Cl)cc3Cl)c3cc(Br)ccc32)C1 [Example 161]"
  pIC50: 6.00
- compound: "C=CC(=O)N1CC(NC(=O)Cn2cc(C(=O)N3CCc4c(ccnc4OC)C3)c3c(Cl)c(Cl)ccc32)C1 [Example 15]"
  pIC50: 6.66
- compound: "C=CC(=O)N1CC(NC(=O)Cn2cc(I)c3ccccc32)C1 [Example 212]"
  pIC50: 4.56
- compound: "C=CC(=O)N1CC(NC(=O)Cn2cc(C(=O)N3CCc4c(Br)cc(C)cc4C3)c3cc(Br)cc(C)c32)C1 [Example 80]"
  pIC50: 6.48
- compound: "C=CC(=O)N1CC(NC(=O)Cn2cc(-c3cccnc3OC(C)C)c3cc(Br)ccc32)C1 [Example 105]"
  pIC50: 5.19

*Q* What value of measured pIC50 is listed for C=CC(=O)N1CC(NC(=O)Cn2cc(C(=O)N3CCc4ccc(C)cc4C3)c3cc(Br)ccc32)C1 [Example 122] ?
*A* 6.16

*Q* What value of measured pIC50 is listed for C=CC(=O)N1CC(NC(=O)Cn2c3c(c4cc(Br)ccc42)CNCC3)C1 [Example 249] ?
*A* 4.26

* * *

systemTested: GDP-bound KRAS protein (aa 1-169), containing both G12C and C118A amino acid substitutions (Homo sapiens (Human), UniProt P01116, C118A/G12C)
experimentSummary: Coupled Nucleotide Exchange Assay
Format: biochemical
reportedConditions: read-out: Coupled Exchange IC50 (2 h); 2 h compound pre-incubation
Experimental: For compounds in Table 9, the following assay conditions were employed: Coupled Nucleotide Exchange Assay: The assay plates were then read on a PerkinElmer EnVision Multilabel Reader, using AlphaScreen® technology, and data were analyzed using a 4-parameter logistic model to calculate IC50 values.
measuredEndpoint: IC50
# number then unit; no other words

*Q* What value of measured IC50 is listed for C=CC(=O)N1CC(NC(=O)Cn2c(CC3CC3)c(C(=O)N3CCc4c(cccc4OC)C3)c3cc(Cl)cc(C)c32)C1 ?
*A* 0.08 µM
